Species on record: Rattus norvegicus
Assay: In vitro inhibition of norepinephrine uptake in rat brain synaptosomes using [3H]NE
Assay type: functional, organism-based
// boundary case: IC50 equal to 2 µM maps to False; strictly smaller maps to True

* CN1Cc2sc(Cl)cc2C(c2ccc(Cl)cc2)C1.Cl (configuration not stated) | True
* CCC1(c2ccc(Br)cc2)CN(C)Cc2sc(C)cc21 (configuration not stated) | False
* CN1Cc2sc(C(C)(C)C)cc2C(c2ccc(Br)cc2)C1.Cl (configuration not stated) | True
* CCCc1cc2c(s1)CN(C)CC2c1ccc(F)cc1.Cl (configuration not stated) | True
* Cc1cc2c(s1)CN(C)CC2(C)c1ccc(Br)cc1 (configuration not stated) | False
* COCc1cc2c(s1)CN(C)CC2c1ccc(Br)cc1 (configuration not stated) | True
* CN1Cc2sccc2C(c2ccc(Cl)cc2Cl)C1.Cl (configuration not stated) | False
* CN1Cc2sc(N)cc2C(c2ccc(Br)cc2)C1 (configuration not stated) | True

Query: Determine whether this compound shows IC50 lower than 2 µM (ties excluded): CN(C)CCCN1c2ccccc2CCc2ccccc21
Reply: False

Query: Decide: IC50 of Cc1cc2c(s1)CN(C)CC2c1ccccc1.Cl (configuration not stated) strictly below 2 µM?
Reply: True

Query: Criterion: IC50 strictly below 2 µM. Is it met by Oc1cccc(C2CNCc3sc(Cl)cc32)c1 (configuration not stated) ?
Reply: False

Query: Does this compound meet the criterion IC50 < 2 µM? Cc1cc2c(s1)CN(C)CC2c1ccc(Cl)cc1.Cl (configuration not stated)
Reply: True

Query: Is IC50 strictly under 2 µM for the entry Cc1cc2c(s1)CN(C)CC2c1ccc(Br)cc1.Cl (configuration not stated) ?
Reply: True

Query: Lab log: compare recorded IC50 with 2 µM; is it strictly lower for Cc1ccc(C2CN(C)Cc3sc(Br)cc32)cc1.Cl (configuration not stated) ?
Reply: True

* * *

Organism: Rattus norvegicus
Test: In vitro inhibition of norepinephrine uptake in rat brain synaptosomes using [3H]NE
Format: functional, organism-based
PROPERTY: pIC50
Just the number, please; pIC50 means minus log10 of the concentration in mol/L.

// known answers, use as guide
• CN1Cc2sc(Cl)cc2C(c2ccc(Br)cc2)C1.Cl (stereo not drawn) = 6.00
• Cl.Clc1cc2c(s1)CNCC2c1ccc(Br)cc1 (stereo not drawn) = 5.44
• Cc1sc2c(c1Br)C(c1ccc(Br)cc1)CN(C)C2.Cl (stereo not drawn) = 5.11
• CN1Cc2sc(N)cc2C(c2ccc(Cl)cc2)C1 (stereo not drawn) = 6.74
• CCc1cc2c(s1)CN(CC)CC2c1ccc(C)cc1.Cl (stereo not drawn) = 6.57
• Cc1cc2c(s1)CN(C)CC2c1ccc(C(F)(F)F)cc1.Cl (stereo not drawn) = 5.11
• Cc1cc2c(s1)CN(C)CC2c1ccc(O)cc1.Cl (stereo not drawn) = 6.60
• CN1Cc2sc(Br)cc2C(c2ccccc2)C1.Cl (stereo not drawn) = 5.64
• Cc1ccc(C2CN(C)Cc3sc(Cl)cc32)cc1.Cl (stereo not drawn) = 6.05
• CN1Cc2sc(Br)cc2C(c2ccc(Br)cc2)C1 (stereo not drawn) = 5.80

Query: Which pIC50 value belongs to CC(=O)Nc1cc2c(s1)CN(C)CC2c1ccc(Cl)cc1.Cl (stereo not drawn) ?
Reply: 6.24

Query: Name the reported pIC50 value associated with the compound COc1ccc(C2CN(C)Cc3sc(C)cc32)cc1.Cl (stereo not drawn)
Reply: 6.40

Query: Data request, read-out pIC50, for Cc1ccc(C2CN(C)Cc3sc(CO)cc32)cc1.Cl (stereo not drawn)
Reply: 7.30

Query: So what does the record say about pIC50 for CCCc1cc2c(s1)CN(C)CC2c1ccc(Br)cc1.Cl (stereo not drawn) ?
Reply: 6.00

Query: // lookup pIC50 for CN1Cc2sc([N+](=O)[O-])cc2C(c2ccc(Br)cc2)C1.Cl (stereo not drawn)
Reply: 6.35

Query: GET /values?readout=pIC50&item= Cc1cc2c(s1)CNCC2c1ccc(Br)cc1.Cl (stereo not drawn)
Reply: 6.12

* * *

// reported IC50 for each item listed
Organism: Rattus norvegicus
Assay: In vitro inhibition of norepinephrine uptake in rat brain synaptosomes using [3H]NE
Assay type: functional, organism-based
Quick reminder: number only, in nM, skip the unit.

- Cc1cc2c(s1)CN(C)CC2c1cccc(C(F)(F)F)c1.Cl (configuration not stated): 3400
- CN1Cc2sc([N+](=O)[O-])cc2C(c2ccc(Cl)cc2)C1 (configuration not stated): 800

Query: // returns reported IC50 for input CN1Cc2sc(Cl)cc2C(c2ccccc2)C1.Cl (configuration not stated)
Reply: 1400

Query: Item under review: Cl.c1ccc(C2CNCc3sccc32)cc1 (configuration not stated) . Reported IC50?
Reply: 3000

* * *

Species on record: Rattus norvegicus
Assay: In vitro inhibition of norepinephrine uptake in rat brain synaptosomes using [3H]NE
Assay type: functional, organism-based
PROPERTY: IC50

// known answers, use as guide
* Cc1cc2c(s1)CN(C)CC2c1c(Cl)cccc1Cl.Cl (stereo not drawn) | > 10 µM
* CCCCN1Cc2sccc2C(c2ccc(Cl)cc2)C1.Cl (stereo not drawn) | > 10 µM

Query: Consider the molecule shown here: COc1ccc(C2CN(C)Cc3sccc32)cc1OC.Cl (stereo not drawn) What is its recorded IC50?
Reply: > 10 µM
